Study system: T1, NPNA4 peptide, biotinylated (for BLI) (Plasmodium falciparum)
T1 construct: source: synthetic peptide, InnoPep Inc
T1 chain: NPNANPNANPNANPNA-{Biotin′}
Procedure summary: BLI
Condition context: both partners purified
Primed or numbered codes have the meaning given here. No end group written: not given here. Biotin′ = biotin

| Binder | binding result |
| --- | --- |
| 311 Fab (Fab, V domains shown, source: ExpiCHO cells, purified (mAb Select PrismA or Capture Select, SEC)) VH: QVQLVESGGGVVPPGRSLRLSCATSGFTFSNYGMHWVRQAPGKGLEWVAIIWYDGSRNFYAASVEGRFTISRDNSKNTLYLQMNSLRVEDTAVYYCARAAYYDTSGYGDYWGQGTLVTVSS VL: QSVLTQPPSVSGAPGQTVTISCTGGSSNIGAGYDVHWYQQLPGTAPKLLIYGNINRPSGVPDRFSGSKSGTSASLAITGLQAEDEADYYCQSYDRRLSGSWVFGGGTKLTVL | binds |
| 311R Fab (Fab, V domains shown, also called Fab311R; germline-reverted 311; source: ExpiCHO cells, purified (mAb Select PrismA or Capture Select, SEC)) VH: QVQLVESGGGVVPPGRSLRLSCATSGFTFSSYGMHWVRQAPGKGLEWVAIIWYDGSNKFYAASVKGRFTISRDNSKNTLYLQMNSLRVEDTAVYYCARAAYYDTSGYGDYWGQGTLVTVSS VL: QSVLTQPPSVSGAPGQTVTISCTGGSSNIGAGYDVHWYQQLPGTAPKLLIYGNINRPSGVPDRFSGSKSGTSASLAITGLQAEDEADYYCQSYDSSLSGSWVFGGGTKLTVL | binds |
| 337 Fab (Fab, V domains shown, also called mAb 337; source: ExpiCHO cells, purified (mAb Select PrismA or Capture Select, SEC)) VH: QVQLVESGGGVVQPGRSLRLSCAASGFSFSTYGMHWVRQAPGKGLEWVALIWHDGSKKFYSESVRGRFTISRDNSMDTLYLQMSSLRAEDTAVYYCARDGADYFDSTGGAFDIWGQGTMVIVSS VL: EIVMTQSPATLSVSPGERATLSCRASQSVSSNLAWYQQKPGQAPRLLIYGASTRATGIPARFSGSGSGTEFTLTISSLQSEDFATYYCQQYKTWWTFGQGTKVEIK | binds |
